Experiment: NCI Yeast Anticancer Drug Screen. Data for the rad18 strain (AID 177)
Conditions: S. cerevisiae rad18 mutant growth inhibition; at 3.7 µM
Description: Growth inhibition of yeast strains with defined genetic alterations is measured as a screen for potential anti-cancer activity. Selected strains with alterations in DNA damage repair or cell cycle control were exposed to compounds and growth inhibition was measured relative to vehicle treated controls. The strain used in this assay is rad18
The panel holds about 79,000 compounds, 15% with a hit somewhere; the sample as a whole holds those more often. The source made the active and inactive calls. No stated cut-off is given here; in the data, active means growth inhibition above about 70%; inactive means the rest.
Outcome codes: active, inactive

[
  {
    "compound": "S=C1C(=Nc2ccccc2)N(c2ccccc2)/C(=N\\c2ccccn2)N1c1ccccc1",
    "label-class": "inactive"
  },
  {
    "compound": "C[n+]1c(-c2ccc(/C=N/NC(=O)c3ccc(C(=O)N/N=C/c4ccc(-c5cn6ccccc6[n+]5C)cc4)cc3)cc2)cn2ccccc21",
    "label-class": "inactive"
  },
  {
    "compound": "CCC(=O)C1=C(O)c2cc(OC)ccc2CC1C(=O)OC (stereo not given)",
    "label-class": "inactive"
  },
  {
    "compound": "CC(C)(N=Nc1ccc(Cl)cc1)[N+](=O)[O-]",
    "label-class": "inactive"
  },
  {
    "compound": "COc1ccc(C(=O)/C=C\\c2ccc(Cl)c(Cl)c2)cc1",
    "label-class": "inactive"
  },
  {
    "compound": "O=NC1c2cccc3cccc(c23)C1N=O (stereo not given)",
    "label-class": "active"
  },
  {
    "compound": "CCCCCCCCCCCNC=O",
    "label-class": "inactive"
  },
  {
    "compound": "COc1cc([C@@H]2c3cc4c(cc3[C@@H](NC(=O)NO)[C@H]3COC(=O)[C@H]23)OCO4)cc(OC)c1O",
    "label-class": "inactive"
  },
  {
    "compound": "COC(=O)C1=C(C(=O)OC)CC(n2nnc(C(=O)OC)c2C(=O)OC)=CC1",
    "label-class": "inactive"
  },
  {
    "compound": "CN(C)CCCn1c2c3ccccc3ccc2c2oc(=O)c3ccccc3c21",
    "label-class": "inactive"
  }
]

* * *

experiment: NCI Yeast Anticancer Drug Screen. Data for the rad50 strain (AID 155);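 further: 0% = growth of vehicle-only cultures of the same strain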; settings: S. cerevisiae rad50 strain growth inhibition; at 3.7 µM; active compounds read high
About 79,000 compounds went through this panel and 15% of them were active in at least one assay; those are over-represented in the sample as a whole. Calls of active or inactive are those of the source. Rule as the data show it: active = growth inhibition above about 70%; inactive = the rest.
property-name: growth inhibition

[
  {
    "molecule": "O=[N+]([O-])c1ccc(S(=O)(=O)Cc2ccccc2)c([N+](=O)[O-])c1",
    "recorded-measurement": "14% (inactive)"
  },
  {
    "molecule": "NC(=S)N/N=C1\\c2ccccc2CCC1CCC1(O)CCc2ccccc2C1=O (configuration not stated)",
    "recorded-measurement": "19% (inactive)"
  },
  {
    "molecule": "COc1cccc(C(NC2=NCCC=N2)c2cc3c(cc2O)OCO3)c1O (configuration not stated)",
    "recorded-measurement": "-1% (inactive)"
  },
  {
    "molecule": "Fc1ccc(Nc2ccc3ccccc3c2)cc1",
    "recorded-measurement": "-48% (inactive)"
  },
  {
    "molecule": "O=C(O)c1c2ccc(Cl)cc2nc2[nH]c(=O)[nH]c(=O)c12",
    "recorded-measurement": "-28% (inactive)"
  },
  {
    "molecule": "BrC1C2CCC3OC3C12 (configuration not stated)",
    "recorded-measurement": "7% (inactive)"
  },
  {
    "molecule": "COc1ccc2nc3cccc([N+](=O)[O-])c3c(NCCNCCN(C)C)c2c1",
    "recorded-measurement": "-5% (inactive)"
  },
  {
    "molecule": "Cc1cc2nc3ccccc3n2c2ccccc12",
    "recorded-measurement": "-7% (inactive)"
  },
  {
    "molecule": "NC(CS)C(=O)NCCNc1ccc(NCCNC(=O)C(N)CS)c2c1C(=O)c1c(O)ccc(O)c1C2=O (configuration not stated)",
    "recorded-measurement": "67% (inactive)"
  },
  {
    "molecule": "CC1=CC(=C(c2ccc(N)c(C)c2)c2ccc(N)c(C)c2)C=CC1=N",
    "recorded-measurement": "10% (inactive)"
  },
  {
    "molecule": "CCC[CH2][Ge]([CH2]CCC)([CH2]CCC)[O]C(=O)C(O)c1ccccc1 (configuration not stated)",
    "recorded-measurement": "9% (inactive)"
  },
  {
    "molecule": "NCCCSc1ccccc1",
    "recorded-measurement": "-2% (inactive)"
  }
]

* * *

experiment: NCI Yeast Anticancer Drug Screen. Data for the rad14 strain (AID 159);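 further: 0% = growth of vehicle-treated control cultures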; details: S. cerevisiae rad14 strain growth inhibition; at 1.2 µM; active compounds read high
About 79,000 compounds went through this panel and 15% of them were active in at least one assay; those are over-represented in the sample as a whole.

[
  {
    "compound": "Cn1c(-c2ccc(/C=N\\N3CCN(/N=C/c4ccc(-c5c[n+]6ccsc6n5C)cc4)CC3)cc2)c[n+]2ccsc12",
    "output-unit": "%",
    "growth inhibition": 16
  },
  {
    "compound": "Nc1ccc(S(=O)(=O)Nc2nc3c(c(=O)[nH]2)CCCC3)cc1",
    "output-unit": "%",
    "growth inhibition": 19
  },
  {
    "compound": "O=CC1(F)CC1(c1ccccc1)c1ccccc1 (centres undefined)",
    "output-unit": "%",
    "growth inhibition": 0
  },
  {
    "compound": "CC1=CN2C(c3ccccc3)=NON(c3ccc(C)cn3)C2C=C1 (centres undefined)",
    "output-unit": "%",
    "growth inhibition": 4
  },
  {
    "compound": "CCCCCCC=C(C(=O)OCC)C(=O)OCC",
    "output-unit": "%",
    "growth inhibition": -3
  },
  {
    "compound": "Oc1ccc(N=Nc2ccc(Cl)cc2)cc1",
    "output-unit": "%",
    "growth inhibition": 2
  },
  {
    "compound": "C[n+]1c(/C=C/c2ccc(/C=N/NC(=O)c3ccc(C(=O)N/N=C/c4ccc(/C=C/c5cn6ccccc6[n+]5C)cc4)cc3)cc2)cn2ccccc21",
    "output-unit": "%",
    "growth inhibition": 62
  },
  {
    "compound": "C/C(=N/NC(=S)Nc1ccccc1C)c1ccccn1",
    "output-unit": "%",
    "growth inhibition": -11
  },
  {
    "compound": "COc1cc(OC)c(CSCC(NC(=O)OCC2c3ccccc3-c3ccccc32)C(=O)O)c(OC)c1 (centres undefined)",
    "output-unit": "%",
    "growth inhibition": -2
  },
  {
    "compound": "CCC1(O)C(=O)OCc2c1cc1n(c2=O)Cc2cc3c(N)cccc3nc2-1 (centres undefined)",
    "output-unit": "%",
    "growth inhibition": -10
  },
  {
    "compound": "Cc1c2cc[n+](CCO)cc2c(C)c2c1[nH]c1ccc(O)cc12",
    "output-unit": "%",
    "growth inhibition": 4
  },
  {
    "compound": "CNCC(C)CNC",
    "output-unit": "%",
    "growth inhibition": -18
  },
  {
    "compound": "Nc1cc2ccccc2cc1N",
    "output-unit": "%",
    "growth inhibition": -15
  },
  {
    "compound": "CC(=O)Oc1ccc2c(c1)Cc1cc(N3C(=O)C=CC3=O)ccc1-2",
    "output-unit": "%",
    "growth inhibition": 10
  },
  {
    "compound": "CCC(/C=C/c1ccccc1)=N\\Nc1ccc(Cl)cc1",
    "output-unit": "%",
    "growth inhibition": 0
  },
  {
    "compound": "Nc1ccc(N=Nc2ccc(-c3ccc(O)cc3)cc2)c2ccc(S(=O)(=O)O)cc12",
    "output-unit": "%",
    "growth inhibition": -1
  },
  {
    "compound": "CC(=O)CC(c1ccccc1)c1c(O)c2ccccc2oc1=O (centres undefined)",
    "output-unit": "%",
    "growth inhibition": -4
  },
  {
    "compound": "CCC(C)COC(=O)Nc1cccc(Cl)c1 (centres undefined)",
    "output-unit": "%",
    "growth inhibition": 3
  },
  {
    "compound": "O=NC1c2cccc3cccc(c23)C1N=O (centres undefined)",
    "output-unit": "%",
    "growth inhibition": 4
  },
  {
    "compound": "O=[N+]([O-])c1ccc2nc(=S)[nH]n2c1",
    "output-unit": "%",
    "growth inhibition": 3
  },
  {
    "compound": "COc1ccc(C(=O)/C=C\\c2ccc(Cl)c(Cl)c2)cc1",
    "output-unit": "%",
    "growth inhibition": -19
  },
  {
    "compound": "CC/C(=C(\\c1ccccc1)c1ccc(OCC[N+](C)(C)C)cc1)c1ccccc1",
    "output-unit": "%",
    "growth inhibition": 0
  },
  {
    "compound": "Cc1ccc(S(=O)(=O)N/N=C/C(Br)=C(/Br)C(=O)O)cc1",
    "output-unit": "%",
    "growth inhibition": 14
  },
  {
    "compound": "CC(CN(C)C)C(=O)/C=C/c1ccc(Cl)c(Cl)c1 (centres undefined)",
    "output-unit": "%",
    "growth inhibition": 6
  }
]

All figures here come from PubChem BioAssay (NCI).
